Hello, the source for this data is ChEMBL document CHEMBL1201862, in case you need it.

Listing of recorded GI50 by entry.
- System: UO-31
- Protocol Notes: NCI tumour cell line growth inhibition, 48 h
Activity calls are given as the source filed them. Rule as the data show it: active = GI50 up to about 1.1 µM and inactive = higher.

Known results for compounds:
INSERT INTO assay_data (compound, measured_quantity, measurement) VALUES
  ('Cc1cccc(/N=C/c2ccc(N(CCC#N)S(=O)(=O)c3ccccc3)cc2C)c1', 'GI50', '13.3 µM (inactive)'),
  ('O=C(O)C1CCCN1Cc1c[nH]c2ccccc12 (stereo unspecified)', 'GI50', '> 100 µM (inactive)'),
  ('CCOC(=O)c1csc(NC(=O)CCN(CC)CC)n1', 'GI50', '35.7 µM (inactive)'),
  ('COc1ccc(/C=N/N=C(N)N)c(C(=O)O)c1OC', 'GI50', '> 100 µM (inactive)'),
  ('CC(=O)OC[C@@H]1[C@H]2CC(=O)O[C@H]2C[C@H]1OC(C)=O', 'GI50', '> 100 µM (inactive)'),
  ('Nc1nc(Cl)cc(NCC2(O)CCC2)n1', 'GI50', '56.5 µM (inactive)'),
  ('COc1cc2c(cc1OC)C(C)N(C)c1c-2c(OC(C)=O)cc2cc(OC)c(OC)cc12 (stereo unspecified)', 'GI50', '12.1 µM (inactive)'),
  ('CC(C)C(C)C(C)(C)P(C)(C)=O (stereo unspecified)', 'GI50', '> 100 µM (inactive)');

Look at this compound and give its reported GI50. `COc1cccc(/C=C2\CCCCCC2=O)c1`
81.5 µM (inactive)

Look at this compound and give its reported GI50. `COc1ccc(-c2csc(-n3c(-c4ccccc4)nc4c(Br)cc(Br)cc4c3=O)n2)cc1`
23.4 µM (inactive)

Look at this compound and give its reported GI50. `CCOC(=O)/C(C#N)=C1/SC(C(=O)N/N=C/c2ccc(OC)cc2)=C(N)N1c1ccccc1`
> 100 µM (inactive)

----------
- Test system: SW-620
- Protocol Notes: NCI tumour cell line growth inhibition, 48 h
Activity calls are given as the source filed them. No stated cut-off is given here; in the data, active = GI50 up to about 1.1 µM and inactive = higher.
Listing of recorded GI50 by entry.

Known results for compounds:
INSERT INTO measurements (compound, system_name, measurement) VALUES
  ('COc1ccc2c(c1)c(=O)c1c(NCCN(C)C)ccc3nnn2c31', 'SW-620', '0.7 µM (active)'),
  ('O=C(Cc1ccccc1)NCCCN(CCCCN(CCCNC(=O)Cc1ccccc1)C(=O)OCc1ccccc1)C(=O)OCc1ccccc1', 'SW-620', '> 100 µM (inactive)'),
  ('CN(C)C(=O)Oc1ccc(C(=S)Nc2ccccc2)cc1', 'SW-620', '> 100 µM (inactive)'),
  ('CCCCc1ccc(-n2sc3ncc(C)cc3c2=O)cc1', 'SW-620', '27.4 µM (inactive)'),
  ('CC(NS(=O)(=O)c1ccc(Cl)cc1)C(=O)O (stereo not given)', 'SW-620', '> 100 µM (inactive)');

Next item in the queue.
Look at this compound and give its reported GI50. `Cc1ccc(NCCN(C)C)c2c(=O)c3cc(O)ccc3oc12`
4.12 µM (inactive)

----------
- System: OVCAR-4
- Protocol Notes: NCI tumour cell line growth inhibition, 48 h
Calls of active or inactive are those of the source. No stated cut-off is given here; in the data, active = GI50 up to about 1.1 µM and inactive = higher.
Listing of recorded GI50 by entry.

INSERT INTO assay_data (structure, measured_quantity, measurement) VALUES
  ('Cc1ccc(C(=O)O)cc1NC(=O)c1cc(/C=C/c2ccccc2)[nH]c(=S)n1', 'GI50', '> 100 µM (inactive)'),
  ('c1ccc2/c3[nH]/c(c2c1)=N\c1ccc(cc1)-c1nc2cc(ccc2o1)/N=c1/[nH]/c(c2ccccc12)=N/c1ccc2nc(oc2c1)-c1ccc(cc1)\N=3', 'GI50', '> 100 µM (inactive)'),
  ('COc1cc2nncc(Sc3cnnc4ccccc34)c2cc1OC', 'GI50', '10.1 µM (inactive)'),
  ('CCN1CCN=C2c3cc(OC)ccc3Nc3c([N+](=O)[O-])ccc1c32', 'GI50', '1.29 µM (inactive)');

Look at this molecule and give its reported GI50. `Cc1ccc(S(=O)(=O)NC(=O)Nc2nc[nH]n2)cc1`
> 100 µM (inactive)

----------
- Test system: OVCAR-5
- Protocol Notes: NCI tumour cell line growth inhibition, 48 h
Calls of active or inactive are those of the source. Cut-off read from the data, not from the text of the source: active = GI50 up to about 1.1 µM and inactive = higher.
Listing of recorded GI50 by entry.

Look at this molecule and give its reported GI50. `CC(=O)OCc1ccc(O)c(C=O)c1`
> 100 µM (inactive)

Look at this molecule and give its reported GI50. `NC(=O)COc1ccc(Br)cc1Br`
> 100 µM (inactive)

Look at this molecule and give its reported GI50. CC1(C)C(O)OC(O)C1(C)C (stereo unspecified)
> 100 µM (inactive)

Look at this molecule and give its reported GI50. Nc1[nH]cnc2ncnc1-2 [ADENINE]
> 250 µM (inactive)

Look at this molecule and give its reported GI50. `O=C(O[C@@H](/C=C/c1ccccc1)P1(=O)N(Cc2ccccc2)[C@H]2CCCC[C@@H]2N1Cc1ccccc1)c1ccccc1`
3.86 µM (inactive)

Look at this molecule and give its reported GI50. OC1CC2CCC(C1)N2CCCN1c2ccccc2Sc2ccc(Cl)cc21 (stereo unspecified)
2.82 µM (inactive)

----------
Listing of recorded GI50 by entry.
- Test system: SNB-19
- Protocol Notes: NCI tumour cell line growth inhibition, 48 h
Activity calls are given as the source filed them. Cut-off read from the data, not from the text of the source: active = GI50 up to about 1.1 µM and inactive = higher.

Look at this molecule and give its reported GI50. `CCOC(=O)C(C)(C)Oc1ccc2c(C)c(-c3ccc(Cl)cc3)c(=O)oc2c1`
51.1 µM (inactive)

Look at this molecule and give its reported GI50. `COc1cccc(/C=C2\CCCCCC2=O)c1`
19.7 µM (inactive)

Look at this molecule and give its reported GI50. `O=C1c2cscc2C(=O)C1(O)O`
> 100 µM (inactive)

Look at this molecule and give its reported GI50. `O=c1[nH]c2ccccc2nc1CBr`
23.5 µM (inactive)

Look at this molecule and give its reported GI50. `CCN(CC)CCNc1ccc2ncn3c4c(OC)ccc(OC)c4c(=O)c1c23`
20 µM (inactive)

Look at this molecule and give its reported GI50. `CC(C)N(c1cc2c(cc1F)c(=O)c(C(=O)O)cn2-c1ccc(N2CCN(C)CC2)cn1)C(C)C`
> 100 µM (inactive)

Look at this molecule and give its reported GI50. `O=S(=O)(N/N=C\c1c2ccccc2[n+]([O-])c2ccccc12)c1ccc(Cl)cc1`
53.3 µM (inactive)

Look at this molecule and give its reported GI50. `O=Cc1c[nH]c2c(=O)[nH]cnc12`
> 100 µM (inactive)

Look at this molecule and give its reported GI50. `COc1cc2c(c(OC)c1OC)-c1ccc(=O)c(O)cc1[C@@H](NC(C)=O)CC2`
25.4 µM (inactive)

Look at this molecule and give its reported GI50. `O=C(CNc1cccc([N+](=O)[O-])c1)Nn1c(-c2ccccc2)nc2ccccc2c1=O`
2.11 µM (inactive)

Look at this molecule and give its reported GI50. `COC(=O)c1c(O)ccc2c1c1c(n2Cc2ccc(Cl)cc2Cl)C(=O)c2ccccc2C1=O`
15.7 µM (inactive)

Look at this molecule and give its reported GI50. `CN(C)C(=O)Oc1ccc(C(=S)Nc2ccccc2)cc1`
> 100 µM (inactive)

Look at this molecule and give its reported GI50. CC(=O)N1CCOC12N=NC(C)(C)O2 (stereo not given)
> 100 µM (inactive)

Look at this molecule and give its reported GI50. `CN(Cc1cc(Cl)c(Cl)cc1NC(=O)CN)[C@H]1CCCC[C@@H]1N1CCCC1`
45.2 µM (inactive)

Look at this molecule and give its reported GI50. `O=S(=O)(c1ccccc1)C(c1ccc2ccccc2n1)S(=O)(=O)c1ccccc1`
> 100 µM (inactive)

Look at this molecule and give its reported GI50. COc1ccc(C2N(c3ccc(F)c([N+](=O)[O-])c3)C(=O)N3C(c4ccc(OC)cc4)N(c4ccc(F)c([N+](=O)[O-])c4)C(=O)N23)cc1 (stereo not given)
> 100 µM (inactive)

Look at this molecule and give its reported GI50. COC(=O)CC[C@@H](NC(=O)C(C)NC(=O)COC1C(O)C(COC(=O)CCCCCCCCCCNC(=O)c2ccc([N+](=O)[O-])c3[nH]c4cc(Br)ccc4c(=O)c23)OC(OCc2ccccc2)C1NC(C)=O)C(N)=O (stereo not given in full)
94 µM (inactive)

Look at this molecule and give its reported GI50. `COc1ccc(CN2C(=O)CCC/C=C\[C@H]2CI)cc1`
13.2 µM (inactive)

Look at this molecule and give its reported GI50. `CC(=O)Oc1ccc2c(c1)O/C(=C\c1ccc(O)cc1)C2=O`
> 100 µM (inactive)

Look at this molecule and give its reported GI50. Cc1ccc([N+](=O)[O-])cc1NC(=O)C(=O)C1CCC2=C(Sc3ccccc3N2)C1=O (stereo not given)
> 100 µM (inactive)

----------
- System: A549
- Protocol Notes: NCI tumour cell line growth inhibition, 48 h
Calls of active or inactive are those of the source. Rule as the data show it: active = GI50 up to about 1.1 µM and inactive = higher. Square brackets hold non-standard residues; d marks the D form. Peptide text beside a SMILES is read from it. * marks the point of attachment. X26 = COC1=CC(=O)N(C(=O)[C@@H](O*)C(C)C)[C@H]1Cc1ccccc1; Bn2Val = CC(C)[C@@H](C(=O)*)N(Cc1ccccc1)Cc1ccccc1; NMeV = CN[C@H](C(=O)O)C(C)C; dNMeA = CN[C@H](C)C(=O)O
Measured Quantity: GI50

Look at this compound and give its reported GI50. COC1=CC(=O)N(C(=O)[C@@H](OC(=O)[C@@H](C)N(C)C(=O)[C@@H]2CCCN2C(=O)[C@H](C(C)C)N(C)C(=O)[C@@H](NC(=O)[C@H](C(C)C)N(Cc2ccccc2)Cc2ccccc2)C(C)C)C(C)C)[C@H]1Cc1ccccc1 (Bn2Val-V[NMeV]P[dNMeA]-X26)
> 100 µM (inactive)

Look at this compound and give its reported GI50. CCc1cc2c(c3c1CCCC3=O)CC1(Cc3ccc(C(=O)OC)cc3C1)C2 (centres undefined)
48.4 µM (inactive)

Look at this compound and give its reported GI50. COc1cccc(N2C(=O)CSC2c2cc(OC)c(OC)c(OC)c2)c1 (centres undefined)
37.1 µM (inactive)

Look at this compound and give its reported GI50. COC1(C)C(=O)N2C1N(C(=O)OCc1ccccc1)CC2(C)C (centres undefined)
> 100 µM (inactive)

Look at this compound and give its reported GI50. `COc1ccc([C@H]2[C@H]3COC(=O)[C@H]3C(C#N)=C3Sc4ccccc4N32)cc1`
30.5 µM (inactive)

Look at this compound and give its reported GI50. CC1N[B@@-](C)(c2ccc(C(F)(F)F)cc2)OC1c1ccccc1 (some centres undefined)
> 100 µM (inactive)
